- Test system: MCF7/6
- assayOverview: Antiinvasive activity against human MCF7/6 cells assessed as inhibition of cell invasion across chick precultured heart fragments at 10 umol/L after 8 days by chick heart invasion assay
- Format: functional, cell-based
Activity calls are given as the source filed them. The calls are words filed in the database; no cut-off is given here.
Output constraint: value belongs to class 1 for active, class 0 for inactive

QUERY: # lookup: test call for `COc1cc(C(=O)Cc2ccc(F)cc2)cc(OC)c1OC`
RESULT: class 0

QUERY: Hi team, can someone confirm the assay call for `COc1cc(-c2cc(-c3ccc(F)cc3)on2)cc(OC)c1OC` ?
RESULT: class 1

QUERY: Please state the recorded outcome for this compound: `COc1cc(-c2oncc2-c2ccc(F)cc2)cc(OC)c1OC`
RESULT: class 1

QUERY: Which outcome did this test record for the compound `COc1ccc(-c2cc(-c3ccc(Cl)cc3)on2)cc1` ?
RESULT: class 0
